Recorded drug sensitivity score for the following compounds
- Tested on: SW480
- Assay Comment: drug sensitivity score (DSS, integrated dose-response area); higher = more sensitive (stronger viability reduction); extreme values may be limits of the assay
- Measurement Parameters: shRNA: SND1 shRNA1 (SND1 silenced)
Lab book: enter the figure in DSS, no units written.

IN: Form field: drug sensitivity score recorded for COc1ccc(CCc2nc3cc(-c4c(C)noc4C)ccc3n2C[C@H](C)N2CCOCC2)cc1Cl [SGC-CBP30] with SW480 (enter value)
OUT: 0.8

IN: Form field: drug sensitivity score recorded for O=C(NC[C@H](O)CN1CCc2ccccc2C1)c1cc(NC2COC2)ncn1 with SW480 (enter value)
OUT: 0

IN: Form field: drug sensitivity score recorded for CO[C@H](C(=O)[C@@H](O)[C@@H](C)O)[C@@H]1Cc2cc3cc(O[C@H]4C[C@@H](O[C@@H]5C[C@@H](O)[C@H](O)[C@@H](C)O5)[C@H](O)[C@@H](C)O4)c(C)c(O)c3c(O)c2C(=O)[C@H]1O[C@H]1C[C@@H](O[C@@H]2C[C@@H](O)[C@@H](O[C@@H]3C[C@](C)(O)[C@H](O)[C@@H](C)O3)[C@@H](C)O2)[C@H](O)[C@@H](C)O1 [Plicamycin] with SW480 (enter value)
OUT: 1.9

IN: Form field: drug sensitivity score recorded for CCN(c1cc(-c2ccc(CN3CCOCC3)cc2)cc(C(=O)NCc2c(C)cc(C)[nH]c2=O)c1C)C1CCOCC1 [Tazemetostat] with SW480 (enter value)
OUT: 3.8

IN: Form field: drug sensitivity score recorded for CC[C@H](CO)Nc1nc(NCc2ccccc2)c2ncn(C(C)C)c2n1 [Seliciclib] with SW480 (enter value)
OUT: 2.1

IN: Form field: drug sensitivity score recorded for CO[C@@H]1[C@H](N(C)C(=O)c2ccccc2)C[C@H]2O[C@]1(C)n1c3ccccc3c3c4c(c5c6ccccc6n2c5c31)C(=O)NC4 [Midostaurin] with SW480 (enter value)
OUT: 14.3

IN: Form field: drug sensitivity score recorded for CCCNC(=O)Nc1ccc(Oc2ncnc3cc(OC)c(OC)cc23)cc1Cl [KRN-633] with SW480 (enter value)
OUT: 0

IN: Form field: drug sensitivity score recorded for COc1cc2nccc(Oc3ccc(NC(=O)NC4CC4)c(Cl)c3)c2cc1C(N)=O [Lenvatinib] with SW480 (enter value)
OUT: 1.8

IN: Form field: drug sensitivity score recorded for COc1ccc(C[C@H](NC(=O)[C@H](C)NC(=O)CN2CCOCC2)C(=O)N[C@@H](Cc2ccccc2)C(=O)C2(C)CO2)cc1 (stereo in doubt) [ONX-0914] with SW480 (enter value)
OUT: 12.9

IN: Form field: drug sensitivity score recorded for CN(C)CCOc1ccc(/C(=C(/CCCl)c2ccccc2)c2ccccc2)cc1 [Toremifene] with SW480 (enter value)
OUT: 2.6

IN: Form field: drug sensitivity score recorded for CC(=O)[C@]1(O)Cc2c(O)c3c(c(O)c2[C@@H](O[C@H]2C[C@H](N)[C@H](O)[C@H](C)O2)C1)C(=O)c1ccccc1C3=O [Idarubicin] with SW480 (enter value)
OUT: 11.6

IN: Form field: drug sensitivity score recorded for O=C1NC(=O)[C@@H](c2cn3c4c(cccc24)CCC3)[C@@H]1c1c[nH]c2ccccc12 [Tivantinib] with SW480 (enter value)
OUT: 6.4

IN: Form field: drug sensitivity score recorded for N[C@@H](Cc1ccc(N(CCCl)CCCl)cc1)C(=O)O [Melphalan] with SW480 (enter value)
OUT: 0

IN: Form field: drug sensitivity score recorded for Cc1cccc(CC(=O)N2CCc3c2ccc(-c2cn(C)c4ncnc(N)c24)c3F)n1 with SW480 (enter value)
OUT: 0

IN: Form field: drug sensitivity score recorded for C/C=C1\NC(=O)[C@H]2CSSCC/C=C/[C@H](CC(=O)N[C@H](C(C)C)C(=O)N2)OC(=O)[C@H](C(C)C)NC1=O [Romidepsin] with SW480 (enter value)
OUT: 25.7

IN: Form field: drug sensitivity score recorded for CC(=O)Nc1ccc(C(=O)Nc2ccccc2N)cc1 [Tacedinaline] with SW480 (enter value)
OUT: 0

IN: Form field: drug sensitivity score recorded for C[C@@H](C(=O)O)c1ccc(-c2ccccc2)c(F)c1 [Tarenflurbil] with SW480 (enter value)
OUT: 0

IN: Form field: drug sensitivity score recorded for Nc1nc(Cl)nc2c1ncn2[C@H]1C[C@H](O)[C@@H](CO)O1 [Cladribine] with SW480 (enter value)
OUT: 2.4

IN: Form field: drug sensitivity score recorded for CCn1nnc2c(N3CCOCC3)nc(-c3ccc(NC(=O)Nc4ccc(C(=O)N5CCN(C)CC5)cc4)cc3)nc21 [PKI-402] with SW480 (enter value)
OUT: 6

IN: Form field: drug sensitivity score recorded for Nc1ncnc2c1nc(N)n2[C@@H]1O[C@H](CO)[C@@H](O)[C@H]1O [8-amino-adenosine] with SW480 (enter value)
OUT: 23.6

IN: Form field: drug sensitivity score recorded for S=C(NCc1ccc2c(c1)OCO2)N1CCN(c2ncnc3c2oc2ccccc23)CC1 [Amuvatinib] with SW480 (enter value)
OUT: 3.9

IN: Form field: drug sensitivity score recorded for COC(=O)N[C@@H](C)CNc1nccc(-c2cn(C(C)C)nc2-c2cc(Cl)cc(NS(C)(=O)=O)c2F)n1 [Encorafenib] with SW480 (enter value)
OUT: 0

These data points were gathered from the supplement of paper PMC9265050.
